MEASURED_TARGET: Human Calpain 9/NS1 (Homo sapiens)
Sequence (O14815 1-690): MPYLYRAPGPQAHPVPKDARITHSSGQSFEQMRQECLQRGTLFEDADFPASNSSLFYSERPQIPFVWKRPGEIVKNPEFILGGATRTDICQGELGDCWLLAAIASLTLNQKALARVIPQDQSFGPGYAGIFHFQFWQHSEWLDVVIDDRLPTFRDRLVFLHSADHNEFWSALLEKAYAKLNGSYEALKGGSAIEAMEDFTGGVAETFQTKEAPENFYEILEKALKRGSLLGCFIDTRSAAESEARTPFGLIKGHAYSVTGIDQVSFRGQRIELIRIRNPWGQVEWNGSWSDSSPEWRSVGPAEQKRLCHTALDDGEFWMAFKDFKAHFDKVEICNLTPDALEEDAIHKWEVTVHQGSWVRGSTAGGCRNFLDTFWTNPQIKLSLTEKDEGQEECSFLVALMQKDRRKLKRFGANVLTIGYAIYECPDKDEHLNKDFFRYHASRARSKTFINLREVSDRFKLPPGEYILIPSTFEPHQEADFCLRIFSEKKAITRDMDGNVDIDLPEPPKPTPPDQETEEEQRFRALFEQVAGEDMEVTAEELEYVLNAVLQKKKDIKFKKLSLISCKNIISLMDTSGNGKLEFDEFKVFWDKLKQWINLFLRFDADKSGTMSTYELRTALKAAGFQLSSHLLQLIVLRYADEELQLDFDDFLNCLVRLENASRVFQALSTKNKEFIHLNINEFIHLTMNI
Sequence (P04632 1-268 partner): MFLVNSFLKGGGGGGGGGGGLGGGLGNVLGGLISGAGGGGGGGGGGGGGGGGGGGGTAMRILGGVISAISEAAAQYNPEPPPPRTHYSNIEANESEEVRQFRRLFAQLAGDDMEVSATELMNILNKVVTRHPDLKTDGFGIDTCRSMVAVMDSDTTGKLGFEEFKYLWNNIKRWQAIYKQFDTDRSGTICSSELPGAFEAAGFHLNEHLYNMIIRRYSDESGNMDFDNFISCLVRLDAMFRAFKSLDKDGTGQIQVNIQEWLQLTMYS
TEST_PROTOCOL: Calpain inhibition continuous fluorescence (FRET) assay, Human Calpain 9/NS1
Assay type: biochemical
MEASUREMENT_CONDITIONS: Column C; read-out: Human Calpain 9/NS1 IC50
pIC50: −log10 of the molar value.
Below: a set of entries, each annotated with reported pIC50.

Examples with answers:
- Cc1cc(C(=O)N[C@@H](Cc2ccccc2)C(=O)C(N)=O)n(-c2cccc(-c3cccc(F)c3)c2)n1: > 5.52
- O=C(NC1CC1)C(=O)[C@H](Cc1ccccc1)NC(=O)c1sc(C2CC2)nc1-c1ccccc1: < 5.00
- Cc1cc(C(=O)N[C@@H](Cc2ccccc2)C(=O)C(N)=O)n(-c2cccc(-c3ccccc3)c2)n1: > 5.52

Consider the additional compound presented here.
Reported pIC50 ( Cc1cccc(-c2nn(C)cc2C(=O)N[C@@H](Cc2ccccc2)C(=O)C(N)=O)c1 ) = > 5.52

* * *

MEASURED_TARGET: human calpain 9 (Homo sapiens)
Construct: human calpain 9, residues 27-347, was over expressed in E. coli BL21 (DE3); hexa-histidine (N); made in house; host or cells: E. coli BL21 (DE3)
Sequence (O14815 27-347): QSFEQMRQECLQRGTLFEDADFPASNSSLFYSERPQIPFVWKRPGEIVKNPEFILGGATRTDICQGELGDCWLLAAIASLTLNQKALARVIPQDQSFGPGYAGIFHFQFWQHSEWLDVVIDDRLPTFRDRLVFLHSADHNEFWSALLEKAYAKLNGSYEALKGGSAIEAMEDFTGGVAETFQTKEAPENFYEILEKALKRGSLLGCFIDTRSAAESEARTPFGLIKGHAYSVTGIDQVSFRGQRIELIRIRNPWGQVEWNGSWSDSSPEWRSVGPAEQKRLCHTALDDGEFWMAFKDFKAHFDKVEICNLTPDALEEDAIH
TEST_PROTOCOL: Calpain binding: crystal structure interaction distances, human calpain 9
MEASUREMENT_CONDITIONS: polar interactions with human calpain 9
QUANTITY_KIND: Interaction Distances R^10-Gly253 (Å)

* NC(=O)C(=O)[C@H](Cc1ccccc1)NC(=O)c1nsnc1-c1ccccc1 [Compound 72] | 3.2
* Cn1cc(C(=O)N[C@@H](Cc2ccccc2)C(=O)C(N)=O)c(-c2ccccc2)n1 [Compound 32] | 3.2
* NC(=O)C(=O)[C@H](Cc1ccccc1)NC(=O)c1snnc1-c1ccccc1 [Compound 44] | 2.9
* CCCC[C@H](NC(=O)c1oc(C)nc1-c1ccccc1)C(=O)C(N)=O [Compound 265] | 2.9
